# Tested on: Proto-oncogene tyrosine-protein kinase receptor Ret (Homo sapiens), P07949 [Y791F]
# Sequence (P07949 whole entry Y791F): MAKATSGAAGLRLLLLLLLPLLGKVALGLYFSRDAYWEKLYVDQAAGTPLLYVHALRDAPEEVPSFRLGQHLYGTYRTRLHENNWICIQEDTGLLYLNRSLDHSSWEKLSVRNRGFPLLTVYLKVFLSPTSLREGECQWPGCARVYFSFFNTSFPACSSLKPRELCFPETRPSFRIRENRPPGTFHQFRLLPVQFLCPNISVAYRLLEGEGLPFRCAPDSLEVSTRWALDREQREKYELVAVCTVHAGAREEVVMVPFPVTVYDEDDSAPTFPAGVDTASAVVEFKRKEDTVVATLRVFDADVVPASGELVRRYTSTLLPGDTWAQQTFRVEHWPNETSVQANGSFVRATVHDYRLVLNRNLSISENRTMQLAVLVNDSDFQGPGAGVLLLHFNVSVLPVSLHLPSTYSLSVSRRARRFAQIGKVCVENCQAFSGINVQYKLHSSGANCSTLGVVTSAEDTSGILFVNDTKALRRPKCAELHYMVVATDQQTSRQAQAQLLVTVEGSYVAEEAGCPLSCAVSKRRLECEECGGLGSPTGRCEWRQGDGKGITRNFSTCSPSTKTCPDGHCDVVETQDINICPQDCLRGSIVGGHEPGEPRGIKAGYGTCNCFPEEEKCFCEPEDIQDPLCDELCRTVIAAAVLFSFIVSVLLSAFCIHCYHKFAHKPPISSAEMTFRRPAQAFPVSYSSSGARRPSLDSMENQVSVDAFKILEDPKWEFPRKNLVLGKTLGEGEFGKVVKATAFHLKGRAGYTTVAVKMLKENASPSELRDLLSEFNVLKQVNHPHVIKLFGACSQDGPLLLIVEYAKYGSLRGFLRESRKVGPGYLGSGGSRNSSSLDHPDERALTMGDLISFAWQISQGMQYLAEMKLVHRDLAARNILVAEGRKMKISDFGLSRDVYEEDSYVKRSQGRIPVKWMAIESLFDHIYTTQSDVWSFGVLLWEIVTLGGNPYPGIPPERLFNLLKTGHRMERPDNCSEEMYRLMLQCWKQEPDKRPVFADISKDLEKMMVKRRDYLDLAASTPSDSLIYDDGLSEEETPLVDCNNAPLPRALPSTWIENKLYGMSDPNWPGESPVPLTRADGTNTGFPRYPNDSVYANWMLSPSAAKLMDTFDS
# measurementSetup: at 1 µM
valueType: inhibition (%)
One number for each entry, in %.

Cc1ccc(C(=O)NC(C)C)cc1-c1ccc(C(=O)NCC2CC2)cc1; -0.37
Cc1nnc(-c2ccc(C)c(-c3ccc(C(=O)NCc4ccc(Cl)cc4)cc3)c2)o1; 7.75

Give inhibition for each listed item.
1. O=C1Nc2ccc(I)cc2C1=Cc1cc(Br)c(O)c(Br)c1
2. Clc1ccc(CNc2nccc(-c3cnn4ncccc34)n2)cc1

Result:
5.79
20.4

---

# assaySystem: Serine/threonine-protein kinase Nek1 (Homo sapiens);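 also: mean percent inhibition of NEK1 kinase, from the GSK PKIS (published kinase inhibitor set) screening panel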
# Sequence (whole entry): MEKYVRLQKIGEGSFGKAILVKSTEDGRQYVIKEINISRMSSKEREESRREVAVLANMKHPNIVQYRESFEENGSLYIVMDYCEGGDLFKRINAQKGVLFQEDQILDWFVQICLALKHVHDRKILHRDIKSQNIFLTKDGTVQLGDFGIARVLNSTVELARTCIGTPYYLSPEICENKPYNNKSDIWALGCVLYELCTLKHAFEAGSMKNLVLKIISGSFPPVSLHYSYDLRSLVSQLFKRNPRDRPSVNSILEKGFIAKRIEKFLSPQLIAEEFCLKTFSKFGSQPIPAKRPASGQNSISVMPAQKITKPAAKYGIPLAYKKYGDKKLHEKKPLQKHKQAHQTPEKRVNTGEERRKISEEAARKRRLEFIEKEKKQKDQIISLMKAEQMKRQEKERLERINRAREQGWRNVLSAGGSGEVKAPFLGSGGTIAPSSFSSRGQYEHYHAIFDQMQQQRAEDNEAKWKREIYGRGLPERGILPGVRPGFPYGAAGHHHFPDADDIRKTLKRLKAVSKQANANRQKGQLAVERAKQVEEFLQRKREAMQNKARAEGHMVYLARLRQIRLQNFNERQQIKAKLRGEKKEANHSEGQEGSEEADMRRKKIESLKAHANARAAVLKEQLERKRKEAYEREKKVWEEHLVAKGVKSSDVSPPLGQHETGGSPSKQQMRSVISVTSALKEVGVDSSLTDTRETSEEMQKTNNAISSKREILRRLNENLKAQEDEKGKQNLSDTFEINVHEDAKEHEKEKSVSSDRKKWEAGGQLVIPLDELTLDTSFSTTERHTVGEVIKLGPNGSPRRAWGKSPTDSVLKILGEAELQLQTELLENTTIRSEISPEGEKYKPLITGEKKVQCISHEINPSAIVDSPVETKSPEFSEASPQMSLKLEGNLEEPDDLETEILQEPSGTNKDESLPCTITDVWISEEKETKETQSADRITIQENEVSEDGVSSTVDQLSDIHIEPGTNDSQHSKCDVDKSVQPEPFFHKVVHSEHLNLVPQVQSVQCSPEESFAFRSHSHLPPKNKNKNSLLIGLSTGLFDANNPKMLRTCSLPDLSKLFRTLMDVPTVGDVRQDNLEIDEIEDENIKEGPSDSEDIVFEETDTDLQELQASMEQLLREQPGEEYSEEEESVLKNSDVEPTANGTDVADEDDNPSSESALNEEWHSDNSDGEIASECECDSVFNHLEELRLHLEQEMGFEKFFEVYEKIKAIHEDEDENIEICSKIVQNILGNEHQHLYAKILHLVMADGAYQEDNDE
# measurementSetup: at 0.1 µM
valueType: inhibition (%)
Give bare numbers, in %.

Examples from the recorded data:
NC(=O)c1cc(-c2ccc(F)cc2)cc(-c2ccncc2)c1N; 1.62
CN(c1ccc(NC(=O)Nc2c(Cl)cccc2Cl)cc1)c1ccnc(Nc2cccc(CS(C)(=O)=O)c2)n1; 1.38
O=C(Nc1n[nH]c2nc(-c3ccc(O)cc3)c(Br)cc12)C1CC1; 3.52
CS(=O)(=O)CCNCc1ccc(-c2ccc3ncnc(Nc4ccc(OCc5ccccc5)c(Br)c4)c3c2)o1; 1.95
Clc1ccc(CNc2nccc(-c3cnn4ncccc34)n2)cc1; 0.32

Return reported inhibition values for all items listed beneath this line.
1. COc1ccc2ncn(-c3cc(O[C@H](C)c4ccccc4Cl)c(C(N)=O)s3)c2c1
2. CCS(=O)(=O)c1ccc(OC)c(Nc2ncc(-c3ccccc3Cl)o2)c1
3. COc1cc(C)c(N(C)C(=O)CN(C)C)cc1Nc1nc(Nc2cccc(F)c2C(N)=O)c2cc[nH]c2n1
4. Fc1ccc(-c2ncn(C3CCNCC3)c2-c2ccnc(Oc3ccc4c(c3)OCO4)n2)cc1
5. O=C(Nc1ccc(Oc2ccc3[nH]c(NC(=O)c4ccccc4)nc3c2)cc1)Nc1cc(C(F)(F)F)ccc1F

Result:
1: 4.81; 2: 0.72; 3: 1.9; 4: 3.2; 5: 1.92

Field: inhibition. Fill in for each record below.
1. COc1cc(N2CCN(C(C)C)CC2)ccc1Nc1nc(Nc2ccc(F)cc2C(=O)NC[C@@H](O)CO)c2cc[nH]c2n1
2. CN(C)CCOc1ccc(-c2cc(-c3ccc4c(c3)CCC4=NO)c(-c3ccncc3)o2)cc1

Result:
[2.75, 0.25]

Source: ChEMBL document CHEMBL1961873
